Overview of recorded protein stability index for various variants
B1: PBXIP1 (parent)
chain: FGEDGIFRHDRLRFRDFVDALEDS

Variants of: B1
assayText: protein stability index of a GFP-peptide fusion (GPS, HEK-293T) (PSI 1-6); higher = more stable;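 further: lentivirally expressed fusions sorted by FACS into six bins by GFP to DsRed ratio, PSI derived from sequencing read proportions per bin multiplied by bin number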
conditionSet: c terminus: a fixed tail appended
metricName: protein stability index

D10H : 2.39
H9V : 2.82
R15D : 2.87
